- procedure summary: Displacement of [3H]NMS from mAChR in SD rat submandibulary gland by rapid filtration technique
pKi: −log10 of the molar value.

{"columns": ["compound", "pKi"],
 "data": [
  ["CC(=O)O[C@@H]1CC2C[C@H](OC(=O)c3ccc(Cl)cc3)CC1N2C (stereo not given in full)", 4.14],
  ["CC(=O)O[C@H]1CC2C[C@@H](OC(=O)c3ccc(Cl)cc3)CC1N2C (stereo not given in full)", 5.05],
  ["CC(=O)O[C@H]1CC2C[C@@H](OS(=O)(=O)c3ccccc3)CC1N2C (stereo not given in full)", 7.40],
  ["CC(=O)O[C@@H]1CC2C[C@H](OC(=O)c3ccc([N+](=O)[O-])cc3)CC1N2C (stereo not given in full)", 3.35],
  ["CC(=O)O[C@H]1CC2C[C@@H](OC(=O)c3ccc([N+](=O)[O-])cc3)CC1N2C (stereo not given in full)", 5.43]
]}
